Entries and their pIC50 values follow.
- system_tested: Adenosine kinase (Homo sapiens)
- Sequence (P55263 whole entry): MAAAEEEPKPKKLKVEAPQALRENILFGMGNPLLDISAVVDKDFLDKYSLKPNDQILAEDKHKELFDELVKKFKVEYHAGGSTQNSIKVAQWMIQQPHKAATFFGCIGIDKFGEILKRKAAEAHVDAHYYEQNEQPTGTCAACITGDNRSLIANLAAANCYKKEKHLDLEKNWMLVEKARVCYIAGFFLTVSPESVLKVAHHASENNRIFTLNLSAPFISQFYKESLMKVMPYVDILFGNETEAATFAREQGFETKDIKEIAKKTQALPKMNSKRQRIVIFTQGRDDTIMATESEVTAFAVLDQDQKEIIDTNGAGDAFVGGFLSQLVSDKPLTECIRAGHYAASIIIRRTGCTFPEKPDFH
Remember, pIC50 is on a log scale: it is -log10 of the molar concentration.

Nc1ncnc(C#Cc2ccc(N3CCOCC3)nc2)c1Cc1ccccc1 = 7.40
Nc1ncnc(C#Cc2ccc(N3CCOCC3)nc2)c1CCCc1ccccc1 = 8.60
CN(C)c1ccc(C#Cc2ncnc(N)c2-c2ccc3c(c2)OCO3)cc1 = 8.05

Proceed to the following item.
The recorded pIC50 for entry CN(C)c1ccc(-c2c(N)ncnc2C#Cc2ccc(N3CCOCC3)nc2)cc1 equals 7.17
